measurement-description: Antioxidant activity against beta-carotene and linoleic acid assessed as inhibition of bleaching of beta-carotene at 120 mins by autooxidation assay
Type: functional
Parameters: concentration or dose not given beside the values
measurement-label: Activity (%)
State just the number; it will be interpreted in %.

O=C1Oc2cc(O)cc(/C=C/c3ccc(O)cc3)c2[C@]12c1c(O)cc(O)cc1O[C@@H]2c1ccc(O)cc1; 72.1
COc1c(O)cc(/C=C/c2cc(O)cc(O)c2)cc1O; 2.9
COc1c(O)cc(/C=C/c2cc(O)cc3c2[C@@]2(C(=O)O3)c3c(O)cc(O)cc3O[C@@H]2c2ccc(O)cc2)cc1O; 71.7
O=C1Oc2cc(O)c3c(c2[C@]12c1c(O)cc(O)cc1O[C@@H]2c1ccc(O)cc1)O[C@H](c1ccc(O)cc1)[C@H](O)C3; 51
COc1c(O)cc(/C=C/c2cc(O)cc3c2[C@]2(C(=O)O3)c3c(O)cc(O)cc3O[C@@H]2c2ccc(O)cc2)cc1O; 66.2

Look at this compound and give its reported Activity. O=C1[C@@H](c2ccc(O)cc2)Oc2cc(O)cc(O)c2[C@@]12c1c(O)cc(O)cc1[C@H](O)[C@H]2c1ccc(O)cc1
43.4

Look at this compound and give its reported Activity. COc1c(O)cc(/C=C/c2cc(O)cc(O)c2)c2c1OC(=O)[C@@]21c2c(O)cc(O)cc2O[C@@H]1c1ccc(O)cc1
79.3

Look at this compound and give its reported Activity. Oc1ccc(/C=C/c2cc(O)cc(O)c2)cc1
45.9

Look at this compound and give its reported Activity. O=C1Oc2cc(O)cc(/C=C/c3ccc(O)cc3)c2[C@@]12c1c(O)cc(O)cc1O[C@@H]2c1ccc(O)cc1
72.1
